Recorded pIC50 for the following compounds
- assay system: human TLR8 (Homo sapiens)
- Construct: expressed in transfected cells; host or cells: HEK-Blue Null1 cells, lentiviral infection
- test summary: SEAP reporter assay in HEK-Blue TLR8 cells, R848-induced TLR8 signaling
- Type: cell-based
- applied conditions: 1(2H)-phthalazinone and quinoline derivatives in HEK-Blue hTLR8 cells
Just the number, please; pIC50 means minus log10 of the concentration in mol/L.

> print(dat)
                                   compound               assay.system  assay.value
1  Cc1cc(-c2ccnc3cccnc23)ccc1O [Compound 50]  human TLR8 (Homo sapiens)         6.52

As a next step, examine the compound that follows.
Please fill in: pIC50 reported for Cc1cc(-c2cncc3ccccc23)ccc1O [Compound 39, 4-Isoquinolin-4-yl-2-methylphenol] = 6.80

---

- assay system: human TLR8 (Homo sapiens)
- Construct: expressed in transfected cells; host or cells: HEK-Blue Null1 cells, lentiviral infection
- Sequence (Q9NR97 27-1041): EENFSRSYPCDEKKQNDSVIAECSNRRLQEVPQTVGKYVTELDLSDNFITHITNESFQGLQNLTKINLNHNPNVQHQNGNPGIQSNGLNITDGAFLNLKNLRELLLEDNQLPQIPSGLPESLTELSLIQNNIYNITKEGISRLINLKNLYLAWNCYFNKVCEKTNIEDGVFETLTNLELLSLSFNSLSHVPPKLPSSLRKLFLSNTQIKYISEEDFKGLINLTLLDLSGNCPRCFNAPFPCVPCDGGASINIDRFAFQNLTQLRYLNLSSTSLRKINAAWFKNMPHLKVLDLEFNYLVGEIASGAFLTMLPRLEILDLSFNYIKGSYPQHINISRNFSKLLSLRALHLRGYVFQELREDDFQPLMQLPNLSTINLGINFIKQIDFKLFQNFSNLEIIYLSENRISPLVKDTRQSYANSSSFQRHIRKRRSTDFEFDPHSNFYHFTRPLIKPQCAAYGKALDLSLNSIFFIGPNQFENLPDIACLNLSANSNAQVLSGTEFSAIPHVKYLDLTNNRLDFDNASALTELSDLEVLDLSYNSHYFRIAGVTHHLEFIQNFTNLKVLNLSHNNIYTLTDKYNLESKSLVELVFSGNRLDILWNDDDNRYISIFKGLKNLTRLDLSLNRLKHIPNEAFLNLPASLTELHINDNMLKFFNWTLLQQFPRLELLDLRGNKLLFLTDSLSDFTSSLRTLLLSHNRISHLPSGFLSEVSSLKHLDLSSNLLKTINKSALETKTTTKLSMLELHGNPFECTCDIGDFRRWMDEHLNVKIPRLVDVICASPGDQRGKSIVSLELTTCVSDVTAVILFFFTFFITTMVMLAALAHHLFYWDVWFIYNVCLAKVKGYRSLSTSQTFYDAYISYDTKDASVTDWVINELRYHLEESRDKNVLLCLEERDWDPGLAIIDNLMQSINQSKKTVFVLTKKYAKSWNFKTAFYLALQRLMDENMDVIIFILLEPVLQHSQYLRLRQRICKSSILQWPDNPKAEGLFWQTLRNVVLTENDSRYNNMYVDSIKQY
- test summary: SEAP reporter assay in HEK-Blue TLR8 cells, R848-induced TLR8 signaling
- Assay type: cell-based
quantity kind: IC50 (nM)
# unit: nM | format: bare number

Please fill in: IC50 reported for "Cc1cc(-c2ccnc3cc(Cl)ccc23)ccc1O" = 1
